# Tested target: HLA-B*5301 (human)
# Experimental details: inhibition of 125I probe peptide, purified HLA
# Condition context: remark: other sources report otherwise
# pIC50 values compiled below
Scale explanation: pIC50 corresponds to minus log10 of a concentration expressed in moles per litre.

- Binder: "LPQHLFGYSI [CEA.58.I10]"
  pIC50: 6.03

Problem: Tell me measured pIC50 for YPNASLLI [CEA.102] please.
Result: 7.40

Reference source: patent US20040146519A1
